measurement_target: T1, GIP receptor (UniProt P48546 22-466, limits assumed)
T1 sequence (looked up): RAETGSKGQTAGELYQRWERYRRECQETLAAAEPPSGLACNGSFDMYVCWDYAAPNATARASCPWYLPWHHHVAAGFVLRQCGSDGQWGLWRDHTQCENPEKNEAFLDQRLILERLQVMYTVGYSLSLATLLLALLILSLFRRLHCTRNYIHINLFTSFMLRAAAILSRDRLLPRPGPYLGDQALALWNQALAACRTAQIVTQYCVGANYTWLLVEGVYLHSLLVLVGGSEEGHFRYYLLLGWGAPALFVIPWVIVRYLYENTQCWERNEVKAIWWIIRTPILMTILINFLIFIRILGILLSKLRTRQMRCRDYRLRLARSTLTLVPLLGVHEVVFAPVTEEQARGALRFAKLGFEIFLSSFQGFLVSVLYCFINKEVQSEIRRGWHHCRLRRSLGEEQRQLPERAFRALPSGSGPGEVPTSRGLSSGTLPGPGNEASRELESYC
experimental_details: cell-based or functional assay
*1 amine or outer side, *2 acyl side, *3 side chain or, on linkers, in order; H or OH if unused. Where no end group is shown, it is not given here. Side-chain parts run from the residue outwards. [ ]: non-standard residue; d: D form. The star is where a group is joined. γGlu = O=C(O)[C@H](CCC(=O)[*:2])N[*:1]; Palmitoyl = CCCCCCCCCCCCCCCC(=O)*; Aib = CC(C)(N)C(=O)O
readout: EC50 (cAMP, nmole)
Value and unit, in that order.

I have this binder here, HXQGTFTSDKSKYLDERAAQDFVQWLLDGGPSSGAPPPS (aib at 2; Lys10 carrying two acylations in a linear formation, K*(C12-rEC16); amide) [dual acylated peptide of SEQ ID NO: 162] , and I need its recorded EC50 (cAMP, nmole).
0.033 nmol

Ok, now HXQGTFTSDKSKYLDERAAQDFVQWLLDGGPSSGAPPPS (aib at 2; Lys10 carrying two acylations in a branched formation, K*K(rEC16)2; amide) [dual acylated peptide of SEQ ID NO: 160]
0.015 nmol

Ok, now H[Aib]QGTFTSDYSKYLDERAAQDFVQWLLDGGPSSGAPPPSK-NH2 (also: Lys40 branched dual acylation K*K(γE-C16)2) [dual acylated peptide of SEQ ID NO: 161]
0.01 nmol

Ok, now H[Aib]QGTFTSDK([γGlu-Palmitoyl])SKYLDERAAQDFVQWLLDGGPSSGAPPPS-NH2 [Analog No. 30: Aib2, K10acyl, E16, A18, L27, D28, G29 + CEX (SEQ ID NO: 28)]
0.007 nmol

Origin of the recorded values: patent US20120238493A1
